Assay: RP, Waters ACQUITY UPLC BEH C18, 100 × 2.1 mm, 1.7 µm, 0.1 mL/min, estimated dead time 2.2 min; A: water + 0.1% formic acid, pH 3; B: methanol + 0.1% formic acid, pH 3; gradient (min/%B) 0/5 5/5 25/95 25.1/100 35/100 35.1/5 45/5
Conditions: stereoisomer not certain
Label Condition met when LC retention time >= 3 min; otherwise Condition not met.

# Molecule, Assigned Label
data = [
    ("CC(C)=CCNc1ncnc2nc[nH]c12 [N6-(DELTA2-ISOPENTENYL)-ADENINE]", "Condition met"),
    ("Nc1nc2nccnc2c(=O)[nH]1 [PTERIN]", "Condition not met"),
    ("CC(=O)OCC(=O)C1CCC2C3CCC4=CC(=O)CCC4(C)C3CCC12C (configuration not stated) [DEOXYCORTICOSTERONE ACETATE]", "Condition met"),
]

Query: Entry O=c1cc[nH]c(=O)[nH]1 [URACIL] : is its LC retention time no less than 3 min?
Result: Condition not met

Query: Follow-up entry: O=c1[nH]c(=O)c2[nH]c(=O)[nH]c2[nH]1 [URATE]
Result: Condition not met

* * *

Test: RP, Waters CORTECS T3, 100 × 2.1 mm, 2.7 µm, 0.25 mL/min, estimated dead time 0.88 min; A: water + 0.1% formic acid, pH 3; B: methanol + 0.1% formic acid, pH 3; gradient (min/%B) 0/5 5/5 25/95 25.1/100 35/100 35.1/5 45/5
Conditions: stereoisomer not certain
Value Type: LC retention time

Observe how each entry below is paired with its result.
# Molecule, Result
measured = [
    ("O=c1[nH]c(=O)c2[nH]cnc2[nH]1", "1.85 min"),
    ("COc1cc(C(O)C(=O)O)ccc1O (stereo not drawn) [3-METHOXY-4-HYDROXYMANDELATE]", "2.78 min"),
]

Query: Consider the molecule shown here: O=C(O)CCCCCCCCCCCO [OMEGA-HYDROXYDODECANOIC ACID] What is its recorded LC retention time?
Result: 20.4 min

* * *

Experiment: RP, Waters CORTECS T3, 100 × 2.1 mm, 2.7 µm, 0.3 mL/min, estimated dead time 0.73 min; A: water + 0.1% formic acid, pH 3; B: methanol + 0.1% formic acid, pH 3; gradient (min/%B) 0/0 5/0 25/100 30/100 30.1/0 35/0
Settings: stereoisomer not certain
Note to self: use Satisfied only for LC retention time readings below 10 min; a reading exactly at 10 min still gets Not satisfied.

Answered cases to consult:
# Compound, Assigned Label
measured = [
    ("O=C([O-])CCc1ccccc1O [3-(2-HYDROXYPHENYL)PROPANOATE]", "Not satisfied"),
    ("CC(CCC(=O)O)C1CCC2C3C(O)CC4CC(O)CCC4(C)C3CC(O)C12C (stereo not given) [CHOLATE]", "Not satisfied"),
    ("Nc1ncnc2nc[nH]c12", "Satisfied"),
    ("CC(=O)NCCCC(=O)[O-] [4-ACETAMIDOBUTANOATE]", "Satisfied"),
]

Query: Hi there! Is LC retention time for CC(O)(CC(=O)O)C(=O)O (stereo not given) [CITRAMALATE] below 10 min, do you know?
Result: Satisfied

* * *

Experiment: RP, Waters CORTECS T3, 100 × 2.1 mm, 2.7 µm, 0.25 mL/min, estimated dead time 0.88 min; A: water + 0.1% formic acid, pH 3; B: methanol + 0.1% formic acid, pH 3; gradient (min/%B) 0/0 1/0 6/5 30/100 35/100 35.1/0 40/0
Conditions: stereoisomer not certain
Record form. Attribute: LC retention time. Fill in for each entry.
One number for each entry, in min.

Observe how each entry below is paired with its result.
# Molecule, LC retention time [min]
measured = [
    ("COc1cc(C=CC(=O)O)ccc1O [FERULATE]", 14.8),
    ("Nc1ncnc2nc[nH]c12", 1.06),
    ("N[C@@H](Cc1ccc(O)c([N+](=O)[O-])c1)C(=O)O", 7.83),
    ("Cc1cc2nc[nH]c2cc1C", 12.6),
    ("OCCc1c[nH]c2ccccc12", 15.3),
    ("N[C@@H](Cc1ccc(O)c(O)c1)C(=O)O [3,4-DIHYDROXY-L-PHENYLALANINE]", 1.13),
    ("CC1C(=O)Nc2ccccc21 (configuration not stated)", 16.1),
    ("CCCCC(CC)COC(=O)c1ccccc1C(=O)OCC(CC)CCCC (configuration not stated) [BIS(2-ETHYLHEXYL)PHTHALATE]", 30.4),
    ("Nc1nc2ncc(CNc3ccc(C(=O)NC(CCC(=O)O)C(=O)O)cc3)nc2c(=O)[nH]1 (configuration not stated)", 12.6),
    ("O=C(O)C=Cc1cnc[nH]1 [UROCANATE]", 1.06),
]

Lab note: each molecule below needs its LC retention time filled in.
1. Nc1nc2nc[nH]c2c(=O)[nH]1
2. CCCCCCSCC(NC(=O)CCC(N)C(=O)O)C(=O)NCC(=O)O (configuration not stated)
3. CC12CCC(=O)C=C1CCC1C2C(O)CC2(C)C1CCC2(O)C(=O)CO (configuration not stated)
4. CSCC1OC(n2cnc3c(N)ncnc32)C(O)C1O (configuration not stated)
5. NC(=O)Cc1c[nH]c2ccccc12 [INDOLE-3-ACETAMIDE]

Result:
1: 5.85; 2: 18.7; 3: 20; 4: 10.7; 5: 12.1

Lab note: each molecule below needs its LC retention time filled in.
1. O=CCc1c[nH]c2ccccc12
2. CC(=O)N[C@H](Cc1c[nH]c2ccccc12)C(=O)O
3. Cc1cnc(=O)[nH]c1N
4. CC(=O)NCCc1c[nH]c2ccc(O)cc12
5. Nc1nc2c(ncn2C2OC(COP(=O)(O)O)C(O)C2O)c(=O)[nH]1 (configuration not stated) [GUANOSINE 5'-MONOPHOSPHATE]

Result:
1: 11.3; 2: 14.8; 3: 1.06; 4: 11.3; 5: 1.09

Lab note: each molecule below needs its LC retention time filled in.
1. CC(=O)NC(CCCCN)C(=O)O (configuration not stated)
2. CSc1ncnc2nc[nH]c12
3. CN1CC(=O)NC1=N
4. Nc1cccc2ccccc12
5. CN1CCC[C@H]1c1cccnc1 [(S)-NICOTINE]
6. CCCCCCCCCCCC(=O)OC(CC(=O)[O-])C[N+](C)(C)C (configuration not stated)
7. Nc1nc2c(ncn2C2OC3COP(=O)(O)OC3C2O)c(=O)[nH]1 (configuration not stated) [GUANOSINE 3',5'-CYCLIC MONOPHOSPHATE]

Result:
[1.09, 12.1, 1.06, 12.6, 1.09, 23.9, 6.2]
